- Test system: CCRF-CEM
- Test Details: Growth inhibition of human CCRF-CEM cells assessed as cell growth at 10 uM incubated for 48 hrs by sulforhodamine B assay relative to control
- Type: functional
- Protocol Conditions: read-out: Activity
# Satisfied = growth at 10 µM below 90% (exclusive); Not satisfied = growth at 10 µM at/above 90%

Examples with answers:
CC(=O)Nc1cc(CO)cc(NC(=O)c2ccc(C(=O)Nc3cccc(NC(=O)CCCN(C)C)c3)cc2)c1 : Satisfied
CC(=O)Nc1cc(CCl)cc(NC(=O)c2ccc(C(=O)NCCCN(C)C)cc2)c1 : Not satisfied

Now let's try a different one.
Qu. Here's an entry: `CCN(CC)CC(=O)Nc1ccc(C(=O)Nc2cc(CO)cc(NC(C)=O)c2)cc1` . Is its growth at 10 µM below 90%?
Ans. Not satisfied

----------
Listed below: growth at 10 µM values for each entry.
- Tested on: SK-MEL-28
- Test Details: Growth inhibition of human SK-MEL-28 cells assessed as cell growth at 10 uM incubated for 48 hrs by sulforhodamine B assay relative to control
- Assay type: functional
- Protocol Conditions: read-out: Activity
Report the value in % with no unit label.

Completed entries (count: 5):
CC(=O)Nc1cc(CCl)cc(NC(=O)c2ccc(C(=O)NCCCN(C)C)cc2)c1 : 107
CC(=O)Nc1cc(CO)cc(NC(=O)c2ccccc2)c1 : 109
CC(=O)Nc1cccc(NC(=O)c2ccc(C(=O)Nc3cc(CCl)cc(NC(C)=O)c3)cc2)c1 : 115
CC(=O)Nc1cc(CO)cc(NC(=O)c2ccc(NC(=O)CCCN3CCOCC3)cc2)c1 : 113
CC(=O)Nc1cccc(NC(=O)c2ccc(C(=O)Nc3cc(CO)cc(NC(C)=O)c3)cc2)c1 : 111

Short answer for `CC(=O)Nc1ccc(C(=O)Nc2cc(CO)cc(NC(C)=O)c2)cc1` : growth at 10 µM was 116

Lab book: growth at 10 µM of `CC(=O)Nc1cc(CO)cc(NC(=O)c2ccc(C(=O)NCCCN3CCOCC3)cc2)c1` noted as 102

Input `CC(=O)Nc1cc(CO)cc(NC(=O)c2ccc(C(=O)NCCCN(C)C)cc2)c1` . Output growth at 10 µM: 108

Sample `CCN(CC)CC(=O)Nc1ccc(C(=O)Nc2cc(CO)cc(NC(C)=O)c2)cc1` ; growth at 10 µM observed: 116

Entry `CC(=O)Nc1cc(CCl)cc(NC(=O)c2ccc(C(=O)Nc3cccc(NC(=O)CCCN(C)C)c3)cc2)c1` , growth at 10 µM reported as 96

Reported growth at 10 µM for `CC(=O)Nc1cc(CO[Si](C)(C)C(C)(C)C)cc(NC(=O)c2ccc(C(=O)Nc3cccc(NC(=O)CCCN(C)C)c3)cc2)c1` was 87

Data point: `CCN(CC)CC(=O)Nc1cccc(C(=O)Nc2cc(CO)cc(NC(C)=O)c2)c1` ; growth at 10 µM = 112

----------
- System: U-251
- Test Details: Growth inhibition of human U-251 cells assessed as cell growth at 10 uM incubated for 48 hrs by sulforhodamine B assay relative to control
- Format: functional
- Protocol Conditions: read-out: Activity
Known growth at 10 µM of a selection of compounds
Just the number in %, nothing appended.

Record excerpt, results attached:
CC(=O)Nc1cc(CO)cc(NC(=O)c2cccc(NC(=O)CCCN3CCOCC3)c2)c1 : 104
CC(=O)Nc1cc(CO)cc(NC(=O)c2ccc(C(=O)NCCCN3CCOCC3)cc2)c1 : 99.5
CC(=O)Nc1cccc(NC(=O)c2ccc(C(=O)Nc3cc(CO)cc(NC(C)=O)c3)cc2)c1 : 111
CC(=O)Nc1cc(CO)cc(NC(=O)c2ccc(C(=O)NCCCN(C)C)cc2)c1 : 107
CC(=O)Nc1cc(CCl)cc(NC(=O)c2ccc(C(=O)Nc3cccc(NC(=O)CCCN(C)C)c3)cc2)c1 : 100

Reported growth at 10 µM of `CC(=O)Nc1cc(CCl)cc(NC(=O)c2ccc(C(=O)NCCCN(C)C)cc2)c1` : 103

For `CC(=O)Nc1cccc(NC(=O)c2ccc(C(=O)Nc3cc(CCl)cc(NC(C)=O)c3)cc2)c1` the compound record lists growth at 10 µM as 113

`CCN(CC)CC(=O)Nc1cccc(C(=O)Nc2cc(CO)cc(NC(C)=O)c2)c1` yielded growth at 10 µM of 103

Item: `CCN(CC)CC(=O)Nc1ccc(C(=O)Nc2cc(CO)cc(NC(C)=O)c2)cc1` | growth at 10 µM: 108
